Target: T1, IL-1β (UniProt P01584 117-269)
T1 construct: Antigen immobilised on the Biacore chip
Assay: Biacore, periplasmic extract
Assay Endpoint: fold difference in affinity vs original
Returns: string containing the number followed by the unit.

Kindly give each listed record's fold difference in affinity vs original.
1. XPA23 light chain N30V (Fab, V domains shown) VH: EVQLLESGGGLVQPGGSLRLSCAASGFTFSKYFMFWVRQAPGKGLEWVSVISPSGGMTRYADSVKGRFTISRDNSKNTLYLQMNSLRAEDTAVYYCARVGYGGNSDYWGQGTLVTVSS VL: DIQMTQSPSSVSASVGDRLTIICRASQDIVRWLAWYQQTPGNAPKLLIHSATSLQSGVPSRFSGSGSGTDFTLTINSLQPEDFATYYCQQADSFPLTFGGGTKVEIK
2. XPA23 light chain A91N (Fab, V domains shown) VH: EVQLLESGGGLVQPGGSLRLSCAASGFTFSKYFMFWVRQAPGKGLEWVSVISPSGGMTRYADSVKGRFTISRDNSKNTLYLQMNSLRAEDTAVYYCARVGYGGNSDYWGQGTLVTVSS VL: DIQMTQSPSSVSASVGDRLTIICRASQDINRWLAWYQQTPGNAPKLLIHSATSLQSGVPSRFSGSGSGTDFTLTINSLQPEDFATYYCQQNDSFPLTFGGGTKVEIK
3. XPA23 light chain S50V (Fab, V domains shown) VH: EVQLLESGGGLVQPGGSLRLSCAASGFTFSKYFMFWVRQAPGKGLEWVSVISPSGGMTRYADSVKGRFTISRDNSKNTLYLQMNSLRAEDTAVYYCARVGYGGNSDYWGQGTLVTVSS VL: DIQMTQSPSSVSASVGDRLTIICRASQDINRWLAWYQQTPGNAPKLLIHVATSLQSGVPSRFSGSGSGTDFTLTINSLQPEDFATYYCQQADSFPLTFGGGTKVEIK

Reply:
0.89 fold
0.1 fold
0.21 fold

Every entry's value here was drawn from patent US20110118131A1.
